Data origin, for the record: patent US12012373B2

# Tgt: human CB1 receptor (Homo sapiens)
# Assay comment: CB1 receptor AequoScreen functional assay (agonist mode)
# Type: cell-based
# Design: Perkin Elmer (host cells ES-000-A24); host or cells: CHO-K1 aeq/G16 (transient, FuGene)
Quantity measured: EC50

[in] Would you please give the reported EC50 of CCCCCc1cc(O)c(C2C=C(C)CCC2)c(O)c1S(=O)(=O)N(CC)CC (stereo not shown) [Compound 62c] with human CB1 receptor (Homo sapiens)?
[out] ~502 nM

----------
pIC50: −log10 of the molar value.
Quantity measured: pIC50

[in] Would you please give the reported pIC50 of C=C(C)[C@@H]1CCC(C)=C[C@H]1c1c(O)cc(CCCCC)c(S(=O)(=O)Nc2ccccc2)c1O [Compound 24d] with human CB2 receptor (Homo sapiens, UniProt P34972)?
[out] 5.30 to 6.00

[in] Would you please give the reported pIC50 of CCCCCc1cc(O)c(C2C=C(C)CCC2)c(O)c1S(=O)(=O)N1CCOCC1 (stereo not shown) [Compound 28c] with human CB2 receptor (Homo sapiens, UniProt P34972)?
[out] 6.00 to 7.00

[in] Would you please give the reported pIC50 of C=C(C)[C@@H]1CCC(C)=C[C@H]1c1c(O)cc(CCCCC)c(S(=O)(=O)N2CCOCC2)c1O [Compound 28d] with human CB2 receptor (Homo sapiens, UniProt P34972)?
[out] > 7.00

[in] Would you please give the reported pIC50 of CCCCCc1cc(O)c(C2C=C(C)CCC2)c(O)c1C(=O)NS(=O)(=O)c1cccnc1 (stereo not shown) [Compound 71c] with human CB2 receptor (Homo sapiens, UniProt P34972)?
[out] 6.00 to 7.00

[in] Would you please give the reported pIC50 of `C=C(C)[C@@H]1CCC(C)=C[C@H]1c1c(O)cc(CCCCC)c(S(C)(=O)=O)c1O` with human CB2 receptor (Homo sapiens, UniProt P34972)?
[out] 5.30 to 6.00

[in] Would you please give the reported pIC50 of CCCCCc1cc(O)c(C2C=C(C)CCC2)c(O)c1S(=O)(=O)N(CC)CC (stereo not shown) [Compound 62c] with human CB2 receptor (Homo sapiens, UniProt P34972)?
[out] > 7.00

[in] Would you please give the reported pIC50 of C=C(C)[C@@H]1CCC(C)=C[C@H]1c1c(O)cc(CCCCC)c(S(=O)(=O)N(CCO)CCBr)c1O [Compound 63d] with human CB2 receptor (Homo sapiens, UniProt P34972)?
[out] 5.30 to 6.00

[in] Would you please give the reported pIC50 of C=C(C)[C@@H]1CCC(C)=C[C@H]1c1c(O)cc(CCCCC)c(S(=O)(=O)N(CC)CC)c1O [Compound 62d] with human CB2 receptor (Homo sapiens, UniProt P34972)?
[out] 6.00 to 7.00

[in] Would you please give the reported pIC50 of C=C(C)[C@@H]1CCC(C)=C[C@H]1c1c(O)cc(CCCCC)c(S(=O)(=O)OCC(F)(F)F)c1O [Compound 64d] with human CB2 receptor (Homo sapiens, UniProt P34972)?
[out] 6.00 to 7.00

[in] Would you please give the reported pIC50 of C=C(C)[C@@H]1CCC(C)=C[C@H]1c1c(O)cc(CCCCC)c(S(=O)(=O)NC(C)C)c1O (stereo in doubt) [Compound 23d] with human CB2 receptor (Homo sapiens, UniProt P34972)?
[out] 6.00 to 7.00

[in] Would you please give the reported pIC50 of C=C(C)[C@@H]1CCC(C)=C[C@H]1c1c(O)cc(CCC)c(S(=O)(=O)NC(C)C)c1O [Compound 68d] with human CB2 receptor (Homo sapiens, UniProt P34972)?
[out] 5.30 to 6.00

[in] Would you please give the reported pIC50 of C=C(C)[C@@H]1CCC(C)=C[C@H]1c1c(O)cc(CCCCC)c(S(=O)(=O)N(C)C)c1O (stereo in doubt) [Compound 21d] with human CB2 receptor (Homo sapiens, UniProt P34972)?
[out] 6.00 to 7.00

[in] Would you please give the reported pIC50 of C=C(C)[C@@H]1CCC(C)=C[C@H]1c1c(O)cc(CCC)c(S(=O)(=O)N(C)C)c1O [Compound 67d] with human CB2 receptor (Homo sapiens, UniProt P34972)?
[out] 5.30 to 6.00

[in] Would you please give the reported pIC50 of CCCCCc1cc(O)c(C2C=C(C)CCC2)c(O)c1S(=O)(=O)Nc1ccccc1 (stereo not shown) [Compound 24c] with human CB2 receptor (Homo sapiens, UniProt P34972)?
[out] 6.00 to 7.00

[in] Would you please give the reported pIC50 of CCCCCc1cc(O)c(C2C=C(C)CCC2)c(O)c1S(=O)(=O)NCc1ccccc1 (stereo not shown) [Compound 25c] with human CB2 receptor (Homo sapiens, UniProt P34972)?
[out] 6.00 to 7.00

[in] Would you please give the reported pIC50 of CCCCCc1cc(O)c(C2C=C(C)CCC2)c(O)c1S(N)(=O)=O (stereo not shown) [Compound 19c] with human CB2 receptor (Homo sapiens, UniProt P34972)?
[out] 5.30 to 6.00

[in] Would you please give the reported pIC50 of C=C(C)[C@@H]1CCC(C)=C[C@H]1c1c(O)cc(CCCCC)c(S(=O)(=O)NC2CC2)c1O [Compound 22d] with human CB2 receptor (Homo sapiens, UniProt P34972)?
[out] 5.30 to 6.00

[in] Would you please give the reported pIC50 of C=C(C)[C@@H]1CCC(C)=C[C@H]1c1c(O)cc(CCCCC)c(S(=O)(=O)NCc2ccccc2)c1O [Compound 25d] with human CB2 receptor (Homo sapiens, UniProt P34972)?
[out] 5.30 to 6.00

[in] Would you please give the reported pIC50 of CCCCCc1cc(O)c(C2C=C(C)CCC2)c(O)c1S(=O)(=O)NC1CC1 (stereo not shown) [Compound 22c] with human CB2 receptor (Homo sapiens, UniProt P34972)?
[out] 6.00 to 7.00

----------
# Tgt: human CB1 receptor (Homo sapiens, UniProt P21554)
# Sequence (P21554 whole entry): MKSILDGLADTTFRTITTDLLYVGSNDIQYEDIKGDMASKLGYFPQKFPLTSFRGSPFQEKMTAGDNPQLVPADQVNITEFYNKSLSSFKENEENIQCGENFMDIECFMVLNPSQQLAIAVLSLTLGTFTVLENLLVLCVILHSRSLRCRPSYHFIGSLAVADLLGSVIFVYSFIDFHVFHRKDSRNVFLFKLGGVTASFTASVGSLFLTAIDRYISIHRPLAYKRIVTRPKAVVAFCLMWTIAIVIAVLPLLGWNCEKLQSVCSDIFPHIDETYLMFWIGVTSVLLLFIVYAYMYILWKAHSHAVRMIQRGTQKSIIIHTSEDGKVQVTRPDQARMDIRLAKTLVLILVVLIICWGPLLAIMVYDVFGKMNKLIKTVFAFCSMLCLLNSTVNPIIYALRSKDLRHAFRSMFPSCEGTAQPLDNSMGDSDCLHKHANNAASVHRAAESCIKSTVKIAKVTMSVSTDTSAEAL
# Assay comment: PathHunter β-Arrestin functional assay, CB1 receptor, agonist mode
# Format: cell-based
# Parameters: membranes prepared in house
pEC50: −log10 of the molar value.
Quantity measured: pEC50

[in] Answer with reported pEC50 of CCCCCc1cc(O)c(C2C=C(C)CCC2)c(O)c1S(=O)(=O)N(CC)CC (stereo not shown) [Compound 62c]
[out] ~6.30

----------
For each record, write down the corresponding pIC50.
# Tgt: human CB1 receptor (Homo sapiens, UniProt P21554)
# Assay comment: biochemical
# Type: binding
# Parameters: membranes prepared in house
pIC50: −log10 of the molar value.

[in] Answer with reported pIC50 of C=C(C)[C@@H]1CCC(C)=C[C@H]1c1c(O)cc(CCCCC)c(S(=O)(=O)N(C)C)c1O (stereo in doubt) [Compound 21d]
[out] 6.00 to 7.00

[in] Answer with reported pIC50 of C=C(C)[C@@H]1CCC(C)=C[C@H]1c1c(O)cc(CCCCC)c(S(=O)(=O)N2CCOCC2)c1O [Compound 28d]
[out] 6.00 to 7.00

[in] Answer with reported pIC50 of C=C(C)[C@@H]1CCC(C)=C[C@H]1c1c(O)cc(CCCCC)c(S(=O)(=O)NC(C)C)c1O (stereo in doubt) [Compound 23d]
[out] 5.30 to 6.00

[in] Answer with reported pIC50 of CCCCCc1cc(O)c(C2C=C(C)CCC2)c(O)c1S(=O)(=O)NCc1ccccc1 (stereo not shown) [Compound 25c]
[out] 6.00 to 7.00

[in] Answer with reported pIC50 of CCCCCc1cc(O)c(C2C=C(C)CCC2)c(O)c1S(=O)(=O)N(CC)CC (stereo not shown) [Compound 62c]
[out] 6.00 to 7.00

[in] Answer with reported pIC50 of C=C(C)[C@@H]1CCC(C)=C[C@H]1c1c(O)cc(CCCCC)c(S(=O)(=O)N(CCO)CCBr)c1O [Compound 63d]
[out] 5.30 to 6.00

[in] Answer with reported pIC50 of CCCCCc1cc(O)c(C2C=C(C)CCC2)c(O)c1C(=O)NS(=O)(=O)c1cccnc1 (stereo not shown) [Compound 71c]
[out] 6.00 to 7.00

----------
# Tgt: human CB1 receptor (Homo sapiens, UniProt P21554)
# Assay comment: biochemical
# Type: binding
# Parameters: membranes prepared in house
pIC50: −log10 of the molar value.
Quantity measured: pIC50

[in] Answer with reported pIC50 of C=C(C)[C@@H]1CCC(C)=C[C@H]1c1c(O)cc(CCCCC)c(S(=O)(=O)N(CC)CC)c1O [Compound 62d]
[out] 6.00 to 7.00

[in] Answer with reported pIC50 of C=C(C)[C@@H]1CCC(C)=C[C@H]1c1c(O)cc(CCCCC)c(S(=O)(=O)NC2CC2)c1O [Compound 22d]
[out] 5.30 to 6.00

[in] Answer with reported pIC50 of C=C(C)[C@@H]1CCC(C)=C[C@H]1c1c(O)cc(CCC)c(S(=O)(=O)N(C)C)c1O [Compound 67d]
[out] 5.30 to 6.00

[in] Answer with reported pIC50 of CCCCCc1cc(O)c(C2C=C(C)CCC2)c(O)c1S(=O)(=O)Nc1ccccc1 (centres unmarked) [Compound 24c]
[out] 5.30 to 6.00

[in] Answer with reported pIC50 of C=C(C)[C@@H]1CCC(C)=C[C@H]1c1c(O)cc(CCCCC)c(S(=O)(=O)NCc2ccccc2)c1O [Compound 25d]
[out] 5.30 to 6.00

[in] Answer with reported pIC50 of CCCCCc1cc(O)c(C2C=C(C)CCC2)c(O)c1S(N)(=O)=O (centres unmarked) [Compound 19c]
[out] 5.30 to 6.00

[in] Answer with reported pIC50 of C=C(C)[C@@H]1CCC(C)=C[C@H]1c1c(O)cc(CCCCC)c(S(=O)(=O)Nc2ccccc2)c1O [Compound 24d]
[out] 5.30 to 6.00

[in] Answer with reported pIC50 of C=C(C)[C@@H]1CCC(C)=C[C@H]1c1c(O)cc(CCCCC)c(S(=O)(=O)OCC(F)(F)F)c1O [Compound 64d]
[out] 6.00 to 7.00

[in] Answer with reported pIC50 of CCCCCc1cc(O)c(C2C=C(C)CCC2)c(O)c1S(=O)(=O)NC1CC1 (centres unmarked) [Compound 22c]
[out] 5.30 to 6.00

[in] Answer with reported pIC50 of C=C(C)[C@@H]1CCC(C)=C[C@H]1c1c(O)cc(CCC)c(S(=O)(=O)NC(C)C)c1O [Compound 68d]
[out] 5.30 to 6.00

[in] Answer with reported pIC50 of `C=C(C)[C@@H]1CCC(C)=C[C@H]1c1c(O)cc(CCCCC)c(S(C)(=O)=O)c1O`
[out] 5.30 to 6.00
